Recorded Inhibition of binding (%) for the following binders
study-system: T1, human TSH receptor (full length), coated on tubes (human, UniProt P16473 22-764)
T1 construct: TSHR coated tubes as described in WO2004/050708A2; Exact preparation on the tubes is not detailed here; also called thyroid stimulating hormone receptor
test: competition with 125I-K1-18 IgG on TSHR coated tubes; 0.03 µg/mL, diluted in HBD serum pool

[
  {
    "binder": "K1-18 Fab (Fab, V domains shown) VH: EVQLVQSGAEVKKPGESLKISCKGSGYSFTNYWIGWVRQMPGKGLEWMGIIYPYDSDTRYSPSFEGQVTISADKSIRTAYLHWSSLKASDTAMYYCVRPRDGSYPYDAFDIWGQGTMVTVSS VL: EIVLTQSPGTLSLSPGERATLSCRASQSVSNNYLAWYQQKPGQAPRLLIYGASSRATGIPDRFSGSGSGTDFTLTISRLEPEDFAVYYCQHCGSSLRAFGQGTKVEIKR",
    "unit-label": "%",
    "Inhibition of binding (%)": 10.3
  },
  {
    "binder": "K1-70 IgG (antibody, V domains shown) VH: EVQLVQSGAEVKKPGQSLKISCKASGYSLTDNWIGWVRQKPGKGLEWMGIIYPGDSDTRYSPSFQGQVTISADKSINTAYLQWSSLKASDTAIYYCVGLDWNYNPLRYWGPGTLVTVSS VL: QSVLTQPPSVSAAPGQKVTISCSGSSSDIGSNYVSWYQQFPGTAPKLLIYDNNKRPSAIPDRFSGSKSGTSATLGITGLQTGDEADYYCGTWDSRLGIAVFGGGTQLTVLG",
    "unit-label": "%",
    "Inhibition of binding (%)": 17.8
  },
  {
    "binder": "K1-18 IgG (antibody, V domains shown) VH: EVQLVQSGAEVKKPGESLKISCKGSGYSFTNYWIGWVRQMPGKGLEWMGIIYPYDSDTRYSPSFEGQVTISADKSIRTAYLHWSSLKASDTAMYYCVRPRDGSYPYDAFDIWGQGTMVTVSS VL: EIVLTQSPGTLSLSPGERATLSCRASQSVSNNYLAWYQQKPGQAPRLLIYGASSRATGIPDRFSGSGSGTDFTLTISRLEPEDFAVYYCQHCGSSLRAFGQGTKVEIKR",
    "unit-label": "%",
    "Inhibition of binding (%)": 15.1
  },
  {
    "binder": "K1-70 Fab (Fab, V domains shown) VH: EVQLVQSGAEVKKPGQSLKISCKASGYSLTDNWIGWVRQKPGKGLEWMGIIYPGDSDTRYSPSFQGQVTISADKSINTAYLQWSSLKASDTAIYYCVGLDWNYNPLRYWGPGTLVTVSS VL: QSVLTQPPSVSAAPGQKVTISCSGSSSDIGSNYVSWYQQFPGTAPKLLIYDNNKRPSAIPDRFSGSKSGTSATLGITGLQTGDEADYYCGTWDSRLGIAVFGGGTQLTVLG",
    "unit-label": "%",
    "Inhibition of binding (%)": 35
  }
]
